Reference source for all entries: paper PMC10786891

Biological target: T1, EsCas13d, nuclease-dead (Eubacterium siraeum, UniProt B0MS50, R295A;H300A;R849A;H854A)
T1 sequence: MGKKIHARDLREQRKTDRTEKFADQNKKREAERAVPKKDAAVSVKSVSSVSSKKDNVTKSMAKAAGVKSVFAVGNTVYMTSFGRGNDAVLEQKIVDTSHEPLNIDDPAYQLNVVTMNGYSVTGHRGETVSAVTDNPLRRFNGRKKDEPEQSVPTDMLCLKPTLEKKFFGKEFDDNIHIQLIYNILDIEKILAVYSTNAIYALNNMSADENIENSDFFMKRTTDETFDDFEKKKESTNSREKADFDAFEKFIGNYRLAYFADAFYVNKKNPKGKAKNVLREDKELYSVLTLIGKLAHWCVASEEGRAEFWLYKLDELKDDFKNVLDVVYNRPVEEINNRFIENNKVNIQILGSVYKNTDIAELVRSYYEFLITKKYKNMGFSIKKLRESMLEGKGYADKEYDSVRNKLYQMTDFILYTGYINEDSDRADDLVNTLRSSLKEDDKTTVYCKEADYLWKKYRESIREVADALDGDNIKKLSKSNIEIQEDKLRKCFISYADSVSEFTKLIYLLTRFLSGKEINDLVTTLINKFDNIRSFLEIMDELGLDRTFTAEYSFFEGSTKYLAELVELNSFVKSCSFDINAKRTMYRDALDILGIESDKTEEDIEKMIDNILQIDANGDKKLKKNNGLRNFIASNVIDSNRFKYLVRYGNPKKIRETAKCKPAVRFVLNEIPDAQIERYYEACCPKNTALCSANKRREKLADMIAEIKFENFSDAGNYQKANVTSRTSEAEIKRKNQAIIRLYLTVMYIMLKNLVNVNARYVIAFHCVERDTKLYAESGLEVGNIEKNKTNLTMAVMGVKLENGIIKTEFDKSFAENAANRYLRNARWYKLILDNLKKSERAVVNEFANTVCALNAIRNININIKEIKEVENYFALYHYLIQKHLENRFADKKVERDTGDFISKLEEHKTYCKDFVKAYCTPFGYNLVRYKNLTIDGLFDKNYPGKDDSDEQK
Test: crRNA (strand 1, pre-loaded); Mg2+; 40 mM Tris-HCl pH 7.5, 150 mM NaCl, 6 mM MgCl2, 1 mM DTT, 0.1% Tween-20, 0.2 mg/ml BSA; 25 C; 10 min per concentration, then washed
Conditions: tags: His6-TwinStrep-SUMO cleaved; N-terminal SNAP kept (SNAP-Surface 488); label: 3' end held by stalled T7 RNA polymerase
pKd: −log10 of the molar value.
Reported pKd values for the following binders.
Endpoint Name: pKd

INSERT INTO assay_data (binder, endpoint_name, recorded_number) VALUES
  ('target 2 MT 5''PFS AUC 3''PFS CGA (mixed) RNA 1: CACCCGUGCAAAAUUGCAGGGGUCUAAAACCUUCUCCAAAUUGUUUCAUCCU RNA 2: GGGAAUGGAUCCACAUCUACGAAUUCAUCAGGAUGAAACAAUUUGGAGAAGCGAAGAUCGGAAGAGCACACGU', 'pKd', 7.21),
  ('target 1 insU 3'' of 13,insG 3'' of 9 (mixed) RNA 1: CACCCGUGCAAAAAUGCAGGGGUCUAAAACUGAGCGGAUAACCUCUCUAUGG RNA 2: GGGAAUGGAUCCACAUCUACGAAUUCGUACCAUAGAGAGUGUUAGUCCGCUCACCGAGAUCGGAAGAGCACACGU', 'pKd', 7.61),
  ('target 1 MT 5''PFS AAG 3''PFS UUC (mixed) RNA 1: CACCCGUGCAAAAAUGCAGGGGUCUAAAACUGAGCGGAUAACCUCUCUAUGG RNA 2: GGGAAUGGAUCCACAUCUACGAAUUCAAGCCAUAGAGAGGUUAUCCGCUCAUUCAGAUCGGAAGAGCACACGU', 'pKd', 7.80),
  ('target 2 MT 5''PFS AUG 3''PFS CAU (mixed) RNA 1: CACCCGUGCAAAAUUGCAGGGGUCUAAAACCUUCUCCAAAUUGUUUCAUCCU RNA 2: GGGAAUGGAUCCACAUCUACGAAUUCAUGAGGAUGAAACAAUUUGGAGAAGCAUAGAUCGGAAGAGCACACGU', 'pKd', 8.12);
